# System: HCC-2998 colon
# testSummary: NCI tumour cell line growth inhibition, 48 h; in the data active means GI50 below about 0.43 µM; inactive means the rest
*1 amine or outer side, *2 acyl side, *3 side chain or, on linkers, in order; H or OH if unused. Where a SMILES comes first, the peptide text is derived from it. Bridges are numbered along the chain shown (N, C = ends). Roman numbers before positions name the chains, in order. X23 = CCCCCCCCCCCCCCC(=O)NC(CCCCN[*:2])C(=O)CN1CCCC1C(=O)[*:1]
Outcome codes: label 1 (active), label 0 (inactive)

# molecule, assignedClass
records = [
    ("O=S1CCN(Cc2ccc(-c3ccc4ncnc(Nc5ccc(OCc6ccccc6)c(F)c5)c4c3)o2)CC1", "label 0"),
    ("O=c1[nH]cc(CO)c(=O)[nH]1", "label 0"),
    ("CC(N)CN.CC(N)CN.[Cl-].[O]=[Os+2]=[O] (stereo unspecified)", "label 0"),
    ("CCCCCCCCCCCCCCC(=O)NC(CCCCNC(=O)C1CCCN1C(=O)C(CCCCN)NC(=O)C(CCCCN)NC(=O)C(CCCCN)NC(=O)C(CCCNC(=N)N)NC(=O)C(CCCCN)NC(=O)C(N)C(C)C)C(=O)CN1CCCC1C(=O)NCC(=O)NC(Cc1ccccc1)C(=O)N1CCCC1C(=O)NC(CO)C(=O)NC(Cc1ccc(O)cc1)C(=O)NC(CCCCN)C(=O)NC(CC(C)C)C(=O)NC(CCCNC(=N)N)C(=O)N1CCCC1C(=O)NCC(N)=O (stereo unspecified) (I: GFPSYKLRPG-NH2 / II: H-VKRKKKP; linker I:N-II:C via X23; configuration not given here)", "label 0"),
    ("O=C1c2cccc3cccc(c23)C(=O)N1CC#Cc1ccc2c3c(cccc13)C(=O)N(CCN1CCNCC1)C2=O", "label 0"),
    ("COc1cc(-c2nccc3[nH]c(-c4cccc5[nH]ccc45)nc23)cc(OC)c1OC", "label 1"),
    ("Oc1[nH]c2ccc(Cl)cc2c1/C=c1/ccc2c(c1)N=C(c1ccc(C(F)(F)F)cc1)N=2", "label 0"),
    ("Cc1cn(C2CC(N=[N+]=[N-])C(CO)O2)c(=O)[nH]c1=O (stereo unspecified)", "label 0"),
    ("O=[N+]([O-])c1ccc(N/N=C/c2ccccc2O)nc1", "label 0"),
    ("O=C1NC(=O)C(N2CCc3ccccc32)=C1c1ccc(Cl)cc1", "label 0"),
    ("Cc1cc(N2CCN(C)CC2)nc(N(CCNc2ccnc3cc(Cl)ccc23)Cc2ccco2)n1", "label 0"),
    ("CCCCCCCCCCCCNC(=O)[C@H]1CSC(c2cc(Br)cs2)N1 (stereo partly specified)", "label 0"),
    ("C=C1C(=O)O[C@H]2[C@H]1CC/C(COC(=O)c1cccc3ccccc13)=C\\CC[C@@]1(C)O[C@@H]21", "label 0"),
    ("Nc1ncnc2c1nc(N)n2C1OC(CO)C(O)C1O (stereo unspecified)", "label 1"),
    ("CCOP(=O)(CCN1CCN(CCCCCOc2cc3c(cc2OC)C(=O)N2CCC[C@H]2C=N3)CC1)OCC", "label 0"),
    ("COc1ccc(Oc2nc(Nc3ccc(N4CCOCC4)cc3)ncc2NC(=O)Nc2cc(OC)cc(OC)c2)cc1", "label 0"),
]

FYI, the data here is from PubChem BioAssay (NCI).
